molecular target: KD^pY1 (mono-phosphorylated FGFR2IIIb kinase domain) (UniProt P21802); experiment: MST; peptide fragments of CT against KD^pY1 (Supplementary Table 4, Supplementary Fig. 3a)
measured_metric: Kd (µM)
Output spec: scalar in µM, unitless text.

Qu. # get_value(readout='Kd', item= PDPMPYEPCLPQYPH (numbers count on: FGFR2IIIb (C1 isoform, 822 residues); source: synthetic peptide, bought: Genscript) [CT peptide 801-815] )
Ans. 25.9
